Sourced from the SangsterLogP compilation

Assign logP to each entry below.
Number, no unit, nothing else.

Name the reported logP value associated with the compound "Cc1cc(C)c(C)c(C)c1"
4.17

Another: "Nc1cc(Cl)c(Cl)c(Cl)c1"
3.32

Next: "Nc1c(Cl)cccc1Cl"
2.71

Try "Nc1ccc(Cl)c(Cl)c1Cl" next.
3.33

====

Please respond with reported logP for every item in the list.

# logP lookup, item "Oc1ccc(Cl)c(Cl)c1"
3.05

Entry to check: "Oc1cc(Cl)cc(Cl)c1"
3.26

Queued: ClC1=C(Cl)C2(Cl)C3C4CC(C5OC45)C3C1(Cl)C2(Cl)Cl (stereo not drawn)
5.11

// next record "Cc1cc(C)c(C)c(C)c1C"
4.56

Next record, please: "Oc1cc(Cl)c(Cl)c(Cl)c1"
3.75

"Nc1c(Cl)c(Cl)c(Cl)c(Cl)c1Cl" , same question.
4.59

Same lookup for "Cc1ccc(C)c(C)c1C" , please.
4.11

Now consider "Cc1cc(C)cc(C)c1" .
3.84
